Exercise: state measured self-aminoacylation for each of the sequences provided.
Test system: biotinyl-Leu-oxazolone
method.notes: self-aminoacylation, catalytic enhancement (BLO) (fold over background); higher = more active; k-Seq, kA / k0A0; sequences stand for … in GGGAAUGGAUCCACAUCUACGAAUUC…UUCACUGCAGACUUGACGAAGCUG
This sample holds only a part of the variants without activity.
One number for each entry.

Take a look at these entries with their results.
INSERT INTO results (seq, assay_value) VALUES
  ('AUUCAUCUAGGUCUUCGGGUG [Fam2.2 aminoacylation ribozyme variant]', 6.24),
  ('AUUACCGUGGUCCUCGAGUGA [Fam2.1 aminoacylation ribozyme variant]', 4.19);

I would be grateful if you could provide self-aminoacylation for each of the following entries.
1. CCACAAUGCAAGCAAUCGGUC [Fam1B.1 aminoacylation ribozyme variant]
2. AAGAUUGCUAAUAGUCCCAAG [Fam3.1 aminoacylation ribozyme variant]
3. CCACCCUUCAAACAAUCGGUC [Fam1B.1 aminoacylation ribozyme variant]
4. AUUCGGCUAGGUCAUCGGGUG [Fam2.2 aminoacylation ribozyme variant]
5. AAGUUUGCAAAUAGCCGCAAG [Fam3.1 aminoacylation ribozyme variant]
6. AUGAUUGCUAAUAGUCGCAAG [Fam3.1 aminoacylation ribozyme variant]
7. AUUACCCUACUCAUCGAGUGA [Fam2.1 aminoacylation ribozyme variant]

Response:
1. 1.01
2. 0.778
3. 2.18
4. 4.58
5. 0.933
6. 1.53
7. 6.54

I would be grateful if you could provide self-aminoacylation for each of the following entries.
1. CCGCACUGCAAGCAAUCGGUC [Fam1B.1 aminoacylation ribozyme variant]
2. AUUACCCUAGUCAUCCAGUGA [Fam2.1 aminoacylation ribozyme variant]
3. AGUACCCUGUUCAUCGAGUGA [Fam2.1 aminoacylation ribozyme variant]
4. AUUACCAUGGUCAUCGAGCGA [Fam2.1 aminoacylation ribozyme variant]
5. AUUUACCUAGGACAUCGGGUG [Fam2.2 aminoacylation ribozyme variant]
6. AUCCACGUAGGUCAUCGGGUG [Fam2.2 aminoacylation ribozyme variant]
7. AAGUUUGCAAAUAGUCGAAAG [Fam3.1 aminoacylation ribozyme variant]
8. CUAUUUCAAACAAUCAGUCUG [Fam1A.1 aminoacylation ribozyme variant]

Response:
1. 1.17
2. 2.86
3. 4.46
4. 1.98
5. 3.45
6. 4.88
7. 0.913
8. 0.72

Prompt: So what's the measured self-aminoacylation for this one? ACUACCCUGGUCACCGAGUGA [Fam2.1 aminoacylation ribozyme variant]
Response: 11.2

###

System: biotinyl-Leu-oxazolone
method.notes: self-aminoacylation, catalytic enhancement (BLO) (fold over background); higher = more active; k-Seq, kA / k0A0; sequences stand for … in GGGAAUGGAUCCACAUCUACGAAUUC…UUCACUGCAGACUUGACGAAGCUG
Fewer inactive variants are shown than the library holds.
Given measured self-aminoacylation, output t if it is greater than or equal to 1 and f if not.

Below, 5 sequences whose answers are already recorded.
INSERT INTO results (seq, class_label) VALUES
  ('GUACUUCAAACCAUCGGUCUG [Fam1A.1 aminoacylation ribozyme variant]', 'f'),
  ('AUUACCCAGGUCAUCCAGUGA [Fam2.1 aminoacylation ribozyme variant]', 't'),
  ('AAGUUCGAUAAUAGUCGCAAG [Fam3.1 aminoacylation ribozyme variant]', 't'),
  ('AUAACCCUGGUCAUCGAGUCA [Fam2.1 aminoacylation ribozyme variant]', 'f'),
  ('CUACUACAAACAAUCGGGCUG [Fam1A.1 aminoacylation ribozyme variant]', 't');

Prompt: Hi, just wondering whether AUACUUCAAACAAUCGGUGUG [Fam1A.1 aminoacylation ribozyme variant] shows self-aminoacylation of 1 or higher.
Response: t

Prompt: Moving on to UUACAUCAAACAAUCGGUCUG [Fam1A.1 aminoacylation ribozyme variant]
Response: t

###

Tested on: biotinyl-Phe-oxazolone
method.notes: self-aminoacylation, catalytic enhancement (BFO) (fold over background); higher = more active; k-Seq, kA / k0A0; sequences stand for … in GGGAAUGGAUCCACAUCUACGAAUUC…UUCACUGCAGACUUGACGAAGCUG
This sample holds only a part of the variants without activity.
Given measured self-aminoacylation, output MET if it is greater than or equal to 40 and NOT MET if not.

Below, 8 sequences whose answers are already recorded.
INSERT INTO results (seq, target_of_assay, class_label) VALUES
  ('AAGUUUGCUAAUAGUAGCGAG [Fam3.1 aminoacylation ribozyme variant]', 'biotinyl-Phe-oxazolone', 'NOT MET'),
  ('CCACACUUCAAUAAAUCGGUC [Fam1B.1 aminoacylation ribozyme variant]', 'biotinyl-Phe-oxazolone', 'NOT MET'),
  ('CCACACUUCACGCAAUCAGUC [Fam1B.1 aminoacylation ribozyme variant]', 'biotinyl-Phe-oxazolone', 'NOT MET'),
  ('AUCACCCUAGUCAUCGAGUGA [Fam2.1 aminoacylation ribozyme variant]', 'biotinyl-Phe-oxazolone', 'MET'),
  ('AUUACCCUGGUCAUAGAGCGA [Fam2.1 aminoacylation ribozyme variant]', 'biotinyl-Phe-oxazolone', 'NOT MET'),
  ('AUUCACCGAGGUCAUGGGGUG [Fam2.2 aminoacylation ribozyme variant]', 'biotinyl-Phe-oxazolone', 'MET'),
  ('AUUGCCCUGGCCAUCGAGUGA [Fam2.1 aminoacylation ribozyme variant]', 'biotinyl-Phe-oxazolone', 'NOT MET'),
  ('AUUCUCCUAGGCCAUCGGGUG [Fam2.2 aminoacylation ribozyme variant]', 'biotinyl-Phe-oxazolone', 'NOT MET');

Prompt: Hi, just wondering whether AUUACCCUGGUGAUCGCGUGA [Fam2.1 aminoacylation ribozyme variant] shows self-aminoacylation of 40 or higher.
Response: MET

Prompt: Moving on to CCACAGUUCAAGCAAUCGCUC [Fam1B.1 aminoacylation ribozyme variant]
Response: NOT MET

Prompt: Moving on to AUUCAACUCGGUCAUCGGGUG [Fam2.2 aminoacylation ribozyme variant]
Response: MET

Prompt: Moving on to AAGUUUCCUAAUAGUCUCAAG [Fam3.1 aminoacylation ribozyme variant]
Response: NOT MET

Prompt: Moving on to AAGUUUGGUAAUACUCGCAAG [Fam3.1 aminoacylation ribozyme variant]
Response: NOT MET

Prompt: Moving on to AAGAUUGCUAAUAGUCGCUAG [Fam3.1 aminoacylation ribozyme variant]
Response: NOT MET

Prompt: Moving on to CCACUUUUCAAGCAAUCGGUC [Fam1B.1 aminoacylation ribozyme variant]
Response: NOT MET

Prompt: Moving on to CGACUUCAAACAAUCGGUCUC [Fam1A.1 aminoacylation ribozyme variant]
Response: MET

Prompt: Moving on to CUACUUCAAAGAAUCGGUCUU [Fam1A.1 aminoacylation ribozyme variant]
Response: NOT MET

###

System: biotinyl-Phe-oxazolone
method.notes: self-aminoacylation, catalytic enhancement (BFO) (fold over background); higher = more active; k-Seq, kA / k0A0; sequences stand for … in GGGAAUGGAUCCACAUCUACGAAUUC…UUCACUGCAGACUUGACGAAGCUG
Variants at the floor of the assay were thinned out.
observed.property: self-aminoacylation
Answers are plain numbers.

Take a look at these entries with their results.
INSERT INTO assay_data (seq, assay_value) VALUES
  ('AUUCACCUAGGUAAUUGGGUG [Fam2.2 aminoacylation ribozyme variant]', 32.1),
  ('ACGUUUGCUAAUAGUCGCCAG [Fam3.1 aminoacylation ribozyme variant]', 2.03),
  ('GUUACACUGGUCAUCGAGUGA [Fam2.1 aminoacylation ribozyme variant]', 28.9),
  ('CAACUUCAUACAAUCGGUCUG [Fam1A.1 aminoacylation ribozyme variant]', 1.65);

I would be grateful if you could provide self-aminoacylation for each of the following entries.
1. CAGUUUGCUAAUAGUCGCUAG [Fam3.1 aminoacylation ribozyme variant]
2. AUACACCUAGGUCACCGGGUG [Fam2.2 aminoacylation ribozyme variant]
3. AUUCACCUAGGUCAUCAGGGG [Fam2.2 aminoacylation ribozyme variant]

Response:
2.2
23.3
0.986

###

System: biotinyl-Phe-oxazolone
method.notes: self-aminoacylation, catalytic enhancement (BFO) (fold over background); higher = more active; k-Seq, kA / k0A0; sequences stand for … in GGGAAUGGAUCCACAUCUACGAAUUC…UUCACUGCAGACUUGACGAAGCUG
Fewer inactive variants are shown than the library holds.
observed.property: self-aminoacylation
One number for each entry.

INSERT INTO assay_data (seq, observed_property, assay_value) VALUES
  ('CUACUUCAAACAAUCGAUUUG [Fam1A.1 aminoacylation ribozyme variant]', 'self-aminoacylation', 1.26),
  ('CAACUUUAAACAAUCGGUCUG [Fam1A.1 aminoacylation ribozyme variant]', 'self-aminoacylation', 2.09),
  ('AAGUUUGUUAAUUGUCGCAAG [Fam3.1 aminoacylation ribozyme variant]', 'self-aminoacylation', 0.994),
  ('AUUCACCUAGGUCGUCGUGUG [Fam2.2 aminoacylation ribozyme variant]', 'self-aminoacylation', 3.62),
  ('AUUCACCCAUGUCAUCGGGUG [Fam2.2 aminoacylation ribozyme variant]', 'self-aminoacylation', 46.4);

I would be grateful if you could provide self-aminoacylation for each of the following entries.
1. CCUCACUUCAAGCAAUCGCUC [Fam1B.1 aminoacylation ribozyme variant]
2. CUACCUCAAACAAUCGCUCUG [Fam1A.1 aminoacylation ribozyme variant]
3. AAGUUUGCAAAUAGUCUCAAG [Fam3.1 aminoacylation ribozyme variant]

Response:
1.27
0.589
0.972
